Listed next: entries and their corresponding Ratio.
# studySystem: Monoamine transporters; serotonin & dopamine (Rattus norvegicus) (UniProt P31652+P23977)
# Sequence (P23977 whole entry, looked up): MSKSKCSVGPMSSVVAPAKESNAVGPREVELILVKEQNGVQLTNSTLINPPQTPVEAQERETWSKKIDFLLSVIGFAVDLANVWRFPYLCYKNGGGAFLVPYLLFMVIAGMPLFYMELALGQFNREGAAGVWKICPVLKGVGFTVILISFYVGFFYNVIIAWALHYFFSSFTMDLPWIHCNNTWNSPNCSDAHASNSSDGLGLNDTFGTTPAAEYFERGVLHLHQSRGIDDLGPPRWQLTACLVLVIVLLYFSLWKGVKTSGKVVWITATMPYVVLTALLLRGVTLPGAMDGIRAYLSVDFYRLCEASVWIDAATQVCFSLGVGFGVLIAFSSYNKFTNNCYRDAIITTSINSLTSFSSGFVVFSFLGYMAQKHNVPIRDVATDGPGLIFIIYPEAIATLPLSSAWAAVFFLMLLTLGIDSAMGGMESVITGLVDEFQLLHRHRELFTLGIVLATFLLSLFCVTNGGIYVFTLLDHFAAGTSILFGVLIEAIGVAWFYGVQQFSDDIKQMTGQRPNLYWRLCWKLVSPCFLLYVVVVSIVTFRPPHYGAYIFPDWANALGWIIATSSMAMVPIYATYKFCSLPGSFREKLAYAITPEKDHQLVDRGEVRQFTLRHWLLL
# Sequence (P31652 whole entry, looked up): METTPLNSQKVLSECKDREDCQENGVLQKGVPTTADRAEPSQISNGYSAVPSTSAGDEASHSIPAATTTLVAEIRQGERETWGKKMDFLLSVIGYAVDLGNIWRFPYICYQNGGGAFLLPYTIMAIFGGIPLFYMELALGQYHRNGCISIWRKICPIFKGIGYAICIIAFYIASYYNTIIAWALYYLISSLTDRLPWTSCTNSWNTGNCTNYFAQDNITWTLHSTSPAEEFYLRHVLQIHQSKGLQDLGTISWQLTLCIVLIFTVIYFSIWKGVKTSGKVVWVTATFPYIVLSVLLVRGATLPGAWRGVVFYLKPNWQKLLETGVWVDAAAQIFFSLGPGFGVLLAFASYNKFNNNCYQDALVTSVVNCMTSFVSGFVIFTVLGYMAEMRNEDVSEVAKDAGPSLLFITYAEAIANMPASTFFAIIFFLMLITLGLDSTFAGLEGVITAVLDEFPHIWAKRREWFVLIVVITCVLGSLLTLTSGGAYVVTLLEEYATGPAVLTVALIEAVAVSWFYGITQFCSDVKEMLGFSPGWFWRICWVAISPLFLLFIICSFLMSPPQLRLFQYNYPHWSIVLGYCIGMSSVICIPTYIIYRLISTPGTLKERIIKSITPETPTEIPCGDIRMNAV
# runDescription: Ratio between affinities at the rat dopamine and serotonin transporters.
# Assay type: protein assay
propertyMeasured: Ratio

[[record]]
compoundstructurestring = "Cc1ccc(CN2CCC(CCOC(c3ccc(F)cc3)c3ccc(F)cc3)CC2)cc1"
endpointresult = 42

[[record]]
compoundstructurestring = "Fc1ccc(C(OCCC2CCN(Cc3ccc(Br)cc3)CC2)c2ccc(F)cc2)cc1"
endpointresult = 181

[[record]]
compoundstructurestring = "Clc1ccc(CN2CCC(CCOC(c3ccccc3)c3ccccc3)CC2)cc1"
endpointresult = 140

[[record]]
compoundstructurestring = "Fc1ccc(C(OCCC2CCN(Cc3ccc(I)cc3)CC2)c2ccc(F)cc2)cc1"
endpointresult = 98

[[record]]
compoundstructurestring = "Ic1ccc(CN2CCC(CCOC(c3ccccc3)c3ccccc3)CC2)cc1"
endpointresult = 63

[[record]]
compoundstructurestring = "COc1ccccc1CN1CCC(CCOC(c2ccc(F)cc2)c2ccc(F)cc2)CC1"
endpointresult = 4

[[record]]
compoundstructurestring = "Fc1ccc(CN2CCC(CCOC(c3ccc(F)cc3)c3ccc(F)cc3)CC2)cc1"
endpointresult = 107

[[record]]
compoundstructurestring = "Fc1ccc(C(OCCC2CCN(Cc3cccc4ccccc34)CC2)c2ccc(F)cc2)cc1"
endpointresult = 23

[[record]]
compoundstructurestring = "COc1ccc(CN2CCC(CCOC(c3ccc(F)cc3)c3ccc(F)cc3)CC2)cc1"
endpointresult = 34

[[record]]
compoundstructurestring = "O=[N+]([O-])c1ccc(CN2CCC(CCOC(c3ccccc3)c3ccccc3)CC2)cc1"
endpointresult = 859

[[record]]
compoundstructurestring = "FC(F)(F)c1ccc(CN2CCC(CCOC(c3ccccc3)c3ccccc3)CC2)cc1"
endpointresult = 648

[[record]]
compoundstructurestring = "Fc1ccc(C(OCCC2CCN(Cc3ccc(C(F)(F)F)cc3)CC2)c2ccc(F)cc2)cc1"
endpointresult = 402

[[record]]
compoundstructurestring = "N#Cc1ccc(CN2CCC(CCOC(c3ccc(F)cc3)c3ccc(F)cc3)CC2)cc1"
endpointresult = 505

[[record]]
compoundstructurestring = "Fc1ccc(CN2CCC(CCOC(c3ccccc3)c3ccccc3)CC2)cc1"
endpointresult = 177

[[record]]
compoundstructurestring = "COc1cccc(CN2CCC(CCOC(c3ccc(F)cc3)c3ccc(F)cc3)CC2)c1"
endpointresult = 12

[[record]]
compoundstructurestring = "N#Cc1ccc(CN2CCC(CCOC(c3ccccc3)c3ccccc3)CC2)cc1"
endpointresult = 390

[[record]]
compoundstructurestring = "O=[N+]([O-])c1ccc(CN2CCC(CCOC(c3ccc(F)cc3)c3ccc(F)cc3)CC2)cc1"
endpointresult = 323

[[record]]
compoundstructurestring = "Fc1ccc(C(OCCC2CCN(Cc3ccc(Cl)cc3)CC2)c2ccc(F)cc2)cc1"
endpointresult = 198

[[record]]
compoundstructurestring = "Brc1ccc(CN2CCC(CCOC(c3ccccc3)c3ccccc3)CC2)cc1"
endpointresult = 154

[[record]]
compoundstructurestring = "Fc1ccc(C(OCCC2CCN(Cc3ccccc3)CC2)c2ccc(F)cc2)cc1"
endpointresult = 17

